// data source = patent US20160122421A1

Overview of reported pKd across a group of binders:
target-under-test: T1, eTau 2
T1 construct: member of the group m9
T1 polypeptide: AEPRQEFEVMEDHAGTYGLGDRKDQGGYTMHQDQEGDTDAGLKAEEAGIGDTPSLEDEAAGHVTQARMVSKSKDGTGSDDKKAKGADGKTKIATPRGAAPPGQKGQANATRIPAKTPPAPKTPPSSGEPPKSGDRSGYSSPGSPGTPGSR
procedure-summary: relative binding affinity, method not named (Table 4)
// pKd: -log10(molar conc.)

[
  {
    "binder": "humanized IPN002 variant VH2/Vk3 (antibody, V domains shown) VH: EVHLVESGGALVKPGGSLRLSCAASGFSFSKYGMSWVRQAPGKGLEWVATISSSGSRTYYPDSVKGRFTISRDNAKNTLYLQMNSLRAEDTAMYYCSISWDGAMDYWGQGTTVTVSS VL: DVVMTQSPLSLPVTLGQPASISCKSSQSIVHSNGNTYLEWYLQKPGQSPQLLVYKVSNRFSGVPDRFSGSGSGTDFTLKISRVEAEDVGVYYCFQGSLVPWAFGGGTKVEIK",
    "pKd": 9.58
  }
]

Alright, here's another binder for you.
Record summary for VH4/Vk3 (antibody, V domains shown, member of the group m7; also called humanized IPN002 variant VH4/Vk3) VH: EVQLVESGGALVKPGGSLRLSCAASGFSFSKYGMSWVRQAPGKGLEWVATISSSGSRTYYPDSVKGRFTISRDNAKNTLYLQMNSLRAEDTAMYYCAISWDGAMDYWGQGTTVTVSS VL: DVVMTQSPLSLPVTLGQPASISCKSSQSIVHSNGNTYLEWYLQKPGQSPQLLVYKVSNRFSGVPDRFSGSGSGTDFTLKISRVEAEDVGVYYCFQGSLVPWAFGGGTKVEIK : reported pKd = 9.33
